Just for reference, patent US11939314B2 is where these values come from.

target: PDGFRalpha(V561D) (Homo sapiens, UniProt P16234, V561D); construct: recombinant human PDGFRalpha, amino acids 550end containing the V561 D mutation; 6His (N); test: PDGFRalpha(V561D) assay; conditions: recombinant human PDGFRalpha aa 550-end, 200 μM ATP, 1.4E-06 means 1.4×10^−6, read-out: Inhibition (IC50) of PDGFRα (V561D)
Sequence (P16234 550-1089 V561D): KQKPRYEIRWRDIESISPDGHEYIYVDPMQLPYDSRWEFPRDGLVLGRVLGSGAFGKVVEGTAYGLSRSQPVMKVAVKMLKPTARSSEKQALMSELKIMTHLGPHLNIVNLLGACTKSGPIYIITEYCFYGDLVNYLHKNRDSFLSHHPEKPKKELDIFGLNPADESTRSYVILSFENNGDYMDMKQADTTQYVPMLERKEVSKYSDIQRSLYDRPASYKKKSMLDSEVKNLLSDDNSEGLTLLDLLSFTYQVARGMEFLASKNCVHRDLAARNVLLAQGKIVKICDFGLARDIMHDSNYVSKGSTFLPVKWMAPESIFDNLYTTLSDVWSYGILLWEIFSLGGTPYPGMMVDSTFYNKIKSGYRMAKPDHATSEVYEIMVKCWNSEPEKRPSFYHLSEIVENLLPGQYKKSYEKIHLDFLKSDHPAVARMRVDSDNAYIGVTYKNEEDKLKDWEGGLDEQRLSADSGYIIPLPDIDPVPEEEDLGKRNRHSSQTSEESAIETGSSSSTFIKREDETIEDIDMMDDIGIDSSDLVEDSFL
Where a name gives a salt, the structure may show the parent alone.
Label True when IC50 is strictly below 10 nM; at or above that, label False.

1) O=C(c1ccc(-n2cc(-c3cc4ccccc4[nH]c3=O)nn2)cc1)N1CCOCC1 : False
2) COc1cnc2[nH]c(=O)c(-c3cn(-c4ccc(C(=O)N(C)C)cc4)nn3)cc2c1 : False
3) O=C(c1ccc(-n2cc(-c3cc4cc(Cl)ccc4[nH]c3=O)nn2)cc1)N1CCC2(COC2)C1 : True
4) O=C(c1ccc(-n2cc(-c3cc4cc(F)ccc4[nH]c3=O)nn2)cc1)N1CCNC[C@H]1CO : False
5) O=C(c1cccc(-n2cc(-c3cc4cc(F)ccc4[nH]c3=O)nn2)c1)N1CCNCC1 : True
6) CN[C@@H]1CCN(C(=O)c2ccc(-n3cc(-c4cc5cc(F)ccc5[nH]c4=O)nn3)cc2)C1 [A311, hydrochloride] : False
7) COc1cccc(-n2cc(-c3cc4ccccc4[nH]c3=O)nn2)c1 : False
